Tested on: 485368-065-R4-J2-PDC spheroids with HUVEC/MSC, viability;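 note: spheroids exposed to compounds for seven days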
PROCEDURE_TEXT: Anticancer human tumor 485368-065-R4-J2-PDC patient-derived pancreatic carcinoma cell line growth inhibition [CLK]; active = viability on the fitted dose curve at most 10% of control; inactive = the rest
RECORDED_CONDITIONS: second compound 3.16 µM; first compound 0.003 µM
Return exactly one item of T for active, F for inactive

Please review the entries below; each comes with its answer.
In: // return assay outcome for C=CC(=O)Nc1cc(Nc2nccc(-c3cn(C)c4ccccc34)n2)c(OC)cc1N(C)CCN(C)C + CNC(=O)c1ccc(Nc2nc(OC3CCCC3)c3c(-c4ccc5nc(C)oc5c4)c[nH]c3n2)c(OC)c1
Out: F

In: What outcome does the record of this test show for C=CC(=O)Nc1cc(Nc2nccc(-c3cn(C)c4ccccc34)n2)c(OC)cc1N(C)CCN(C)C + CN1CCN(c2cc(C(=O)Nc3cc4cc(-c5cnn(C)c5)ccc4cn3)ccn2)CC1 ?
Out: T

In: Recorded call for CC(C)CC(NC(=O)C(Cc1ccccc1)NC(=O)c1cnccn1)B(O)O (centres undefined) + CN1CCN(c2cc(C(=O)Nc3cc4cc(-c5cnn(C)c5)ccc4cn3)ccn2)CC1 ?
Out: T

Continuing:
In: Outcome logged for CC(C)CC(NC(=O)C(Cc1ccccc1)NC(=O)c1cnccn1)B(O)O (centres undefined) + CNC(=O)c1ccc(Nc2nc(OC3CCCC3)c3c(-c4ccc5nc(C)oc5c4)c[nH]c3n2)c(OC)c1 in this assay:
Out: F
